assayed-target: Signal peptidase IB (Staphylococcus aureus, UniProt P0A070)
Sequence (P0A070 whole entry): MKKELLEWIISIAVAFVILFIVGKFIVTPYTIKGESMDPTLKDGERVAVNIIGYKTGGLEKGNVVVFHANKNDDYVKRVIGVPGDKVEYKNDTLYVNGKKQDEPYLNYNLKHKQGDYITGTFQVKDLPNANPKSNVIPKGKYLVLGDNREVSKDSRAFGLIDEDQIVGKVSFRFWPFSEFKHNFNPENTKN
Kindly supply the reported pIC50 values for the records listed here.
Please treat pIC50 as minus the base-10 logarithm of the molar concentration.

Fill in: Signal peptidase IB (Staphylococcus aureus, UniProt P0A070) pIC50 for `CCCCCCCCCCCCCCCC(=O)N(C)[C@H](CO)C(=O)N[C@H](C)C(=O)NCC(=O)N(C)[C@@H]1C(=O)N[C@@H](C)C(=O)N[C@H](C(=O)O)Cc2ccc(O)c(c2)-c2cc1ccc2OP(=O)(O)O` = 5.70

Fill in: Signal peptidase IB (Staphylococcus aureus, UniProt P0A070) pIC50 for `CCCCCCCCCCCCCCCC(=O)N(C)[C@H](CO)C(=O)N[C@H](C)C(=O)NCC(=O)N(C)[C@@H]1C(=O)N[C@@H](C)C(=O)N[C@H](C(=O)NCC=O)Cc2ccc(O)c(c2)-c2cc1ccc2OP(=O)(OCc1ccccc1)OCc1ccccc1` = 6.82

Fill in: Signal peptidase IB (Staphylococcus aureus, UniProt P0A070) pIC50 for `CCCCCCCCCCCCCCCC(=O)N(C)[C@H](CO)C(=O)N[C@H](C)C(=O)NCC(=O)N(C)[C@@H]1C(=O)N[C@@H](C)C(=O)N[C@H](C(=O)NCC=O)Cc2ccc(O)c(c2)-c2cc1ccc2OCCO` = 7.20

----------
The molecules below have reported IC50 for UniProtKB P00803.

response.value for `CCCCCCCCCCCCCCCC(=O)N(C)[C@H](CO)C(=O)N[C@H](C)C(=O)NCC(=O)N(C)[C@@H]1C(=O)N[C@@H](C)C(=O)N[C@H](C(=O)NCP(=O)(Oc2ccccc2)Oc2ccccc2)Cc2ccc(O)c(c2)-c2cc1ccc2O` (field: IC50) = > 17.8 µM

response.value for `CCCCCCCCCCCCCCCC(=O)N(C)[C@H](CO)C(=O)N[C@H](C)C(=O)NCC(=O)N(C)[C@@H]1C(=O)N[C@@H](C)C(=O)N[C@H](C(=O)NCC=O)Cc2ccc(O)c(c2)-c2cc1ccc2OP(=O)(OCc1ccccc1)OCc1ccccc1` (field: IC50) = 0.195 µM

response.value for `CCCCCCCCCCCCCCCC(=O)N(C)[C@H](CO)C(=O)N[C@H](C)C(=O)NCC(=O)N(C)[C@@H]1C(=O)N[C@@H](C)C(=O)N[C@H](C(=O)NCP(=O)(O)O)Cc2ccc(O)c(c2)-c2cc1ccc2O` (field: IC50) = 0.842 µM

----------
Kindly supply the reported IC50 values for the records listed here.
Give just the number in nM; leave the unit off.

Fill in: Signal peptidase I (Escherichia coli K-12, UniProt P00803) IC50 for `CCCCCCCCCCCCCCCC(=O)N(C)[C@H](CO)C(=O)N[C@H](C)C(=O)NCC(=O)N(C)[C@@H]1C(=O)N[C@@H](C)C(=O)N[C@H](C(=O)NCC=O)Cc2ccc(O)c(c2)-c2cc1ccc2OCCO` = 9.31

Fill in: Signal peptidase I (Escherichia coli K-12, UniProt P00803) IC50 for `CCCCCCCCCCCCCCCC(=O)N(C)[C@H](CO)C(=O)N[C@H](C)C(=O)NCC(=O)N(C)[C@@H]1C(=O)N[C@@H](C)C(=O)N[C@H](C(=O)O)Cc2ccc(O)c(c2)-c2cc1ccc2O` = 70
